Data provenance: PubChem BioAssay (NCI)

tested on: NCI-H23 lung; assay: NCI tumour cell line growth inhibition, 48 h; in the data active = GI50 below about 0.43 µM; inactive = the rest
Pick one and only one: Y (active), N (inactive)

Examples from the recorded data:
Cc1cc2c(cc1Cl)SC(N(c1ccccc1Cl)S(=O)(=O)c1ccc(Br)s1)=NS2(=O)=O :: N
CN(C)c1ccc(/C=C/C(=O)c2ccc(Nc3nc(Nc4ccc(F)cc4)nc(Nc4ccc(F)cc4)n3)cc2)cc1 :: N
Cc1ccc2c(c1)[n+](=O)c(C(=O)c1cccs1)c(C(F)(F)F)n2[O-] :: N
CC(=O)N[C@H](C)[C@@H](O)[C@@H](C)[C@@H]1OC(=O)/C=C/C=C(C)\C=C\[C@]2(C)C[C@@H](NS(C)(=O)=O)C=C[C@@H]2/C=C(C)/C=C/[C@H]1C :: Y
CC[C@@]1(O)C(=O)OCc2c1cc1n(c2=O)Cc2cc3cc(Cl)ccc3nc2-1 :: Y

Lookup: Short answer needed: outcome of this test for "C=CC(=O)N[C@@H]1CN(c2nc(Nc3cn(C)nc3OC)c3ncn(C)c3n2)C[C@H]1F" ?
Found: N

Lookup: Entry C[C@@H](O)[C@@H](C)Oc1nc(Nc2ccc(S(=N)(=O)C3CC3)cc2)ncc1C(F)(F)F (some centres undefined) : call = ?
Found: Y

Lookup: // return assay outcome for O=CC(OC(=O)c1ccccc1)C(OC(=O)c1ccccc1)C(COC(c1ccccc1)(c1ccccc1)c1ccccc1)OC(=O)c1ccccc1 (centres undefined)
Found: N

Lookup: Could you check what this test reported for "COc1ccccc1-n1cnc(N)c1C(=O)c1cc(OC)c(OC)c(OC)c1" ?
Found: N

###

Listed next: entries and their corresponding TGI.
system: M19-MEL melanoma; test: NCI tumour cell line growth inhibition, 48 h

CCc1cccc(C(C)C)c1NC(=O)CC1Sc2ccccc2NC1=O (stereo not given) :: > 100 µM
COC(=O)C(C(=O)C(=O)Nc1ccc(C)cc1)c1nc2ccc([N+](=O)[O-])cc2[nH]c1=O (stereo not given) :: > 100 µM
C/C(NNC(=O)c1ccccc1O)=C1\C=Nc2ccccc2S1 :: > 100 µM

Lookup: Which value of TGI has been reported for "[N-]=[N+]=CC(=O)C1(C(=O)C=[N+]=[N-])CC1" in the records?
Found: > 100 µM

Lookup: Dear colleague, I am looking for the recorded TGI of the following molecule: "Cc1noc2cccc(O)c12"
Found: > 100 µM

Lookup: Tell me the measured TGI of "O=c1oc2cc(O)ccc2c2[nH]c3cc(O)ccc3c12" , please.
Found: 98.7 µM

Lookup: What value of measured TGI is listed for "O=C1NC(=O)C(C(=O)C(=O)Nc2cc(Cl)ccc2Cl)C(=O)N1" ?
Found: > 100 µM

Lookup: Looking for the measured TGI of CC1CC(C[N+](=O)[O-])CC2(C1)OCCO2 (stereo not given) , can you help?
Found: > 100 µM

Lookup: Look up TGI: "C/C(=C1/N=C(c2cc([N+](=O)[O-])ccc2Cl)N(c2ccc(Br)cc2)C1=O)c1ccc(N(CCC#N)CCC#N)cc1C"
Found: 92.3 µM

Lookup: I would be grateful if you could share the reported TGI for "C/C(=N\Nc1ccccc1)c1sc(-c2nc(C)c(/C(C)=N/Nc3ccccc3)s2)nc1C" .
Found: > 85.2 µM

###

A collection of molecules and their measured TGI
test system: K-562 leukemia; assay: NCI tumour cell line growth inhibition, 48 h

CC(C)C[C@H](CC(=O)O)C(=O)N[C@@H](Cc1c[nH]c2ccccc12)C(=O)N[C@@H](C)c1ccccc1 :: > 25 µM
CCc1cccc(C(C)C)c1NC(=O)CC1Sc2ccccc2NC1=O (stereo not given) :: > 100 µM

Then this molecule:
Lookup: Any idea what TGI was measured for "O=C(O)c1cc(N=Nc2ccc([N+](=O)[O-])cc2)ccc1O" ?
Found: > 100 µM
